Tested on: U2OS
Experiment: Multiplex assay against U2OS
Format: toxicity, cell-based
Conditions: human, 12 h, 10 µM, compound concentration 10 uM, replicate 2
measured attribute: Population Pyknosed Nuclei (%)

- compound: "CCN(CC)CCCCNc1ncc2cc(-c3cc(OC)cc(OC)c3)c(NC(=O)NC(C)(C)C)nc2n1 [PD-173074]"
  assayed system: "U2OS"
  numeric result: 31
- compound: "Cl.N#Cc1ccc2[nH]cc(CCCCN3CCN(c4ccc5oc(C(N)=O)cc5c4)CC3)c2c1 [VILAZODONE HYDROCHLORIDE]"
  assayed system: "U2OS"
  numeric result: 64
- compound: "CN1CCN(CCOc2cc(OC3CCOCC3)c3c(Nc4c(Cl)ccc5c4OCO5)ncnc3c2)CC1 [SARACATINIB]"
  assayed system: "U2OS"
  numeric result: 18
- compound: "COc1cccc([C@@H](C)NCCCc2ccccc2Cl)c1.Cl [TECALCET HYDROCHLORIDE]"
  assayed system: "U2OS"
  numeric result: 17
- compound: "CC[C@H](C)C(=O)O[C@H]1C[C@@H](C)C=C2C=C[C@H](C)[C@H](CC[C@@H]3C[C@@H](O)CC(=O)O3)[C@H]21 [LOVASTATIN]"
  assayed system: "U2OS"
  numeric result: 4
- compound: "Cc1cc(C)cc(-c2cnc3cc(Cl)c(-c4cccc(O)c4)cc3c2OCCCN)c1"
  assayed system: "U2OS"
  numeric result: 50
- compound: "CN(C)C(=O)N[C@H]1CC[C@H](CCN2CCN(c3cccc(Cl)c3Cl)CC2)CC1.Cl [CARIPRAZINE HYDROCHLORIDE]"
  assayed system: "U2OS"
  numeric result: 25
- compound: "Cc1nc(-c2cn3c(n2)-c2ccc(-c4cnn(C(C)(C)C(N)=O)c4)cc2OCC3)n(C(C)C)n1 [TASELISIB]"
  assayed system: "U2OS"
  numeric result: 12
- compound: "CN1CCC[C@@H]1CCO[C@](C)(c1ccccc1)c1ccc(Cl)cc1.O=C(O)/C=C/C(=O)O [CLEMASTINE FUMARATE]"
  assayed system: "U2OS"
  numeric result: 38
- compound: "O=C1NCN(c2ccccc2)C12CCN(CCCOc1ccc(F)cc1)CC2 [SPIRAMIDE]"
  assayed system: "U2OS"
  numeric result: 7
- compound: "C=CC(=O)Nc1cc2c(Nc3ccc(F)c(Cl)c3)ncnc2cc1OCCCN1CCOCC1.Cl.Cl [CANERTINIB DIHYDROCHLORIDE]"
  assayed system: "U2OS"
  numeric result: 5
- compound: "Cc1nc(Nc2n[nH]c3c2CN(C(=O)N[C@H](CN(C)C)c2ccccc2)C3(C)C)c2sccc2n1 [PF-03758309]"
  assayed system: "U2OS"
  numeric result: 16
- compound: "Cc1c(-c2ccc(O)cc2)n(Cc2ccc(OCCN3CCCCCC3)cc2)c2ccc(O)cc12 [BAZEDOXIFENE]"
  assayed system: "U2OS"
  numeric result: 36
- compound: "COc1cc2nccc(Oc3ccc(NC(=O)Nc4cc(C)on4)c(Cl)c3)c2cc1OC.O"
  assayed system: "U2OS"
  numeric result: 12
- compound: "Cn1c(-c2csc(C3CCN(CC4=NC5N=CC=CC5N4)CC3)n2)nc2ccccc21 (stereo not drawn) [BAY-070]"
  assayed system: "U2OS"
  numeric result: 2
- compound: "CN(C)C(=O)/C(C#N)=C/c1ccc(-c2nc3cnc4[nH]ccc4c3n2C2CCCCC2)o1"
  assayed system: "U2OS"
  numeric result: 17
- compound: "C[C@@H](NCCCc1cccc(C(F)(F)F)c1)c1cccc2ccccc12.Cl [CINACALCET HYDROCHLORIDE]"
  assayed system: "U2OS"
  numeric result: 55
- compound: "CC(C)NCC(O)COc1ccc(CCOCC2CC2)cc1.Cl (stereo not drawn) [BETAXOLOL HYDROCHLORIDE]"
  assayed system: "U2OS"
  numeric result: 13
- compound: "CNc1nc(NCc2ccc(NS(C)(=O)=O)cc2Cl)cc(-c2ccccn2)n1"
  assayed system: "U2OS"
  numeric result: 11
- compound: "COc1ncc(-c2ccc3nccc(-c4ccnnc4)c3c2)cc1NS(=O)(=O)c1ccc(F)cc1F [OMIPALISIB]"
  assayed system: "U2OS"
  numeric result: 39
- compound: "C=CC(=O)Nc1cccc(C(=O)Nc2ccc(Nc3cc(-c4[nH]c(SC)nc4C)ccn3)cc2)c1"
  assayed system: "U2OS"
  numeric result: 10
- compound: "CN(C)c1ncnc(-c2ccc3nc(Nc4cc(CN5CCN(C(=O)CC(F)(F)F)CC5)ccn4)[nH]c3c2)c1Cl [BAY-440]"
  assayed system: "U2OS"
  numeric result: 1
- compound: "Cc1csc2c(N[C@@H](C)CN3CCN(S(=O)(=O)c4ccc(Cl)c(Cl)c4)CC3)ncnc12"
  assayed system: "U2OS"
  numeric result: 19
- compound: "Cn1cc(-c2[nH]c3cc(NC(=O)[C@H](N)C4CCCCC4)cc4c3c2C=NNC4=O)cn1"
  assayed system: "U2OS"
  numeric result: 19
- compound: "OC1(c2ccc(Cl)cc2)CCN(Cc2c[nH]c3ccccc23)CC1"
  assayed system: "U2OS"
  numeric result: 47
- compound: "CN1CCN(c2ccc(OC(F)(F)F)c(Nc3ncc4c(n3)-c3c(c(C(N)=O)nn3CCO)CC4)c2)CC1 [ONVANSERTIB]"
  assayed system: "U2OS"
  numeric result: 12
- compound: "COc1cc(-n2cnc3cc(-c4ccc(Cl)cc4)sc3c2=O)ccc1OCCN1CCCC1"
  assayed system: "U2OS"
  numeric result: 19
- compound: "CC(C)(O)CNc1ncc(-c2ccnc(Nc3ccnc(Cl)c3)n2)c(CC2CC2)n1"
  assayed system: "U2OS"
  numeric result: 26
- compound: "CN1CCCC(n2nc(Cc3ccc(Cl)cc3)c3ccccc3c2=O)CC1.Cl (stereo not drawn) [AZELASTINE HYDROCHLORIDE]"
  assayed system: "U2OS"
  numeric result: 15
- compound: "Cc1nc(-c2ccc(-c3ccc(C(=O)N4CCc5cc6c(cc54)C4(CCN(C)CC4)CO6)cc3)c(C)c2)no1 [SB-224289]"
  assayed system: "U2OS"
  numeric result: 15
- compound: "Cc1[nH]c(/C=C2\\C(=O)Nc3ccc(S(=O)(=O)N(C)c4cccc(Cl)c4)cc32)c(C)c1C(=O)N1CCN(C)CC1"
  assayed system: "U2OS"
  numeric result: 16
- compound: "c1cn2cc(-c3ccc4cn[nH]c4c3)nc(Nc3ccc(N4CCOCC4)cc3)c2n1 [ENTOSPLETINIB]"
  assayed system: "U2OS"
  numeric result: 67
- compound: "CN(C)CC#Cc1ccc(OCCCc2sc(N3CCc4cccc(C(=O)Nc5nc6ccccc6s5)c4C3)nc2C(=O)O)c(F)c1 [A-1155463]"
  assayed system: "U2OS"
  numeric result: 23

----------
Tested on: HEK-293T
Test: Multiplex assay against HEK293T
Type: toxicity, cell-based
Conditions: human, 24 h, 1 µM, compound concentration 1 uM, replicate 2
measured attribute: Population Healthy Nuclei (%)

- molecule: "c1cn2cc(-c3ccc4cn[nH]c4c3)nc(Nc3ccc(N4CCOCC4)cc3)c2n1"
  assayed system: "HEK-293T"
  numeric result: 60
- molecule: "C=CC(=O)Nc1cc2c(Nc3ccc(F)c(Cl)c3)ncnc2cc1OCCCN1CCOCC1.Cl.Cl [CANERTINIB DIHYDROCHLORIDE]"
  assayed system: "HEK-293T"
  numeric result: 80
- molecule: "C=CC(=O)Nc1cccc(C(=O)Nc2ccc(Nc3cc(-c4[nH]c(SC)nc4C)ccn3)cc2)c1"
  assayed system: "HEK-293T"
  numeric result: 64
- molecule: "OC1(c2ccc(Cl)cc2)CCN(Cc2c[nH]c3ccccc23)CC1"
  assayed system: "HEK-293T"
  numeric result: 52
- molecule: "Cc1c(-c2ccc(O)cc2)n(Cc2ccc(OCCN3CCCCCC3)cc2)c2ccc(O)cc12"
  assayed system: "HEK-293T"
  numeric result: 50
- molecule: "CNc1nc(NCc2ccc(NS(C)(=O)=O)cc2Cl)cc(-c2ccccn2)n1"
  assayed system: "HEK-293T"
  numeric result: 57
- molecule: "CC[C@H](C)C(=O)O[C@H]1C[C@@H](C)C=C2C=C[C@H](C)[C@H](CC[C@@H]3C[C@@H](O)CC(=O)O3)[C@H]21"
  assayed system: "HEK-293T"
  numeric result: 65
- molecule: "CN(C)C(=O)/C(C#N)=C/c1ccc(-c2nc3cnc4[nH]ccc4c3n2C2CCCCC2)o1"
  assayed system: "HEK-293T"
  numeric result: 68
- molecule: "Cc1[nH]c(/C=C2\\C(=O)Nc3ccc(S(=O)(=O)N(C)c4cccc(Cl)c4)cc32)c(C)c1C(=O)N1CCN(C)CC1"
  assayed system: "HEK-293T"
  numeric result: 56
- molecule: "Cl.N#Cc1ccc2[nH]cc(CCCCN3CCN(c4ccc5oc(C(N)=O)cc5c4)CC3)c2c1 [VILAZODONE HYDROCHLORIDE]"
  assayed system: "HEK-293T"
  numeric result: 43
- molecule: "COc1cc(-n2cnc3cc(-c4ccc(Cl)cc4)sc3c2=O)ccc1OCCN1CCCC1"
  assayed system: "HEK-293T"
  numeric result: 61
- molecule: "NC(=O)Nc1cc(-c2cccc(F)c2)sc1C(=O)N[C@H]1CCCNC1"
  assayed system: "HEK-293T"
  numeric result: 39
- molecule: "Cc1nc(-c2ccc(-c3ccc(C(=O)N4CCc5cc6c(cc54)C4(CCN(C)CC4)CO6)cc3)c(C)c2)no1"
  assayed system: "HEK-293T"
  numeric result: 46
- molecule: "Cc1cc(C)cc(-c2cnc3cc(Cl)c(-c4cccc(O)c4)cc3c2OCCCN)c1"
  assayed system: "HEK-293T"
  numeric result: 56
- molecule: "Cc1nc(Nc2n[nH]c3c2CN(C(=O)N[C@H](CN(C)C)c2ccccc2)C3(C)C)c2sccc2n1"
  assayed system: "HEK-293T"
  numeric result: 84
- molecule: "O=C1NCN(c2ccccc2)C12CCN(CCCOc1ccc(F)cc1)CC2 [SPIRAMIDE]"
  assayed system: "HEK-293T"
  numeric result: 61
- molecule: "CCN(CC)CCCCNc1ncc2cc(-c3cc(OC)cc(OC)c3)c(NC(=O)NC(C)(C)C)nc2n1"
  assayed system: "HEK-293T"
  numeric result: 1

Values were extracted from ChEMBL document CHEMBL4689842.
